Assay: P. aeruginosa biofilm formation inhibitors, primary screen, strain PAO1, LB-PBS medium, absorbance 600 nm (AID 1176); also: test concentration not given here
Conditions: P. aeruginosa PAO1 growth/biofilm, A600, 12 h; higher = more signal
z-score: recorded values
readout.kind: z-score

compound=COC(=O)CC=C[C@@H](C)[C@@H](C=NO[C@@H]1O[C@H](COC(C)=O)[C@@H](OC(C)=O)[C@H](OC(C)=O)[C@H]1OC(C)=O)OC result_value=0.0738
compound="CCOC(=O)[C@H](CC(C)C)NC(=O)CCC1CC(OC(=O)NCCc2ccc(F)cc2)CC2(CCCC(COC(=O)NCCc3ccccc3OC)O2)O1 (stereo not given in full)" result_value=0.45
compound=CCc1cc2c(nc1CC)CCN(CCC(C)=NO[C@H](C)c1cn([C@H](CO)Cc3ccccc3)nn1)C2 result_value=-0.503
compound="Cc1cc2c(nc1C)CCCCN2CC(C)ON=C1[C@H]2CCn3c(=O)n(-c4ccccc4)c(=O)n3[C@H]2[C@H](O)[C@@H]2O[C@H]12 (stereo not given in full)" result_value=-0.525
compound=CO[C@H](C1CCCCC1)[C@H](C)C=CCC(=O)OCCCc1ccccc1 result_value=-0.315
compound="CCOC(=O)[C@H](CC(C)C)NC(=O)CCC1CC(OC(=O)NCc2cccc3ccccc23)CC2(CCCC(COC(=O)NCCCN3CCCC3=O)O2)O1 (stereo not given in full)" result_value=-0.47
compound=C#CCCCON=C1C[C@@H](O)[C@@H](O)[C@@H]2[C@@H]3C(=O)N(CCC(=O)OCC)C(=O)[C@@H]3CC[C@H]12 result_value=-0.191
compound=CCOC(=O)NN=C1C[C@@H](O)[C@@H](O)[C@@H]2[C@@H]3C(=O)N(C(C)(C)C)C(=O)[C@@H]3CC[C@H]12 result_value=0.434
compound=CCc1cc2c(nc1CC)CCN(CCC(C)=NO[C@@H](C)c1cn([C@H](CO)Cc3ccccc3)nn1)C2 result_value=-0.218
compound="CCOC(=O)[C@H](CC(C)C)NC(=O)CCC1CC(OC(=O)NCc2cccc3ccccc23)CC2(CCCC(COC(=O)NCCOc3ccccc3)O2)O1 (stereo not given in full)" result_value=-0.127
compound=CC(C)CON=C1C[C@@H](O)[C@@H](O)[C@@H]2[C@@H]3C(=O)N(C4CCCCC4)C(=O)[C@@H]3CC[C@@H]12 result_value=-0.294
compound=C[C@@H]1CC[C@H]2C(=O)O[C@@H](COc3ccc(C(C)(C)C)cc3)CN2[C@@H]1c1ccc(Br)cc1 result_value=-0.291
compound=CC(C)=CCCC(C)=CCON=C1C[C@@H](O)[C@@H](O)[C@@H]2[C@@H]3C(=O)N(c4ccc(F)cc4F)C(=O)[C@@H]3CC[C@@H]12 result_value=0.519
compound=CC(CCN1CCCCc2nc(C)c(C)cc21)=NO[C@H](C)c1cn([C@H](CO)Cc2ccccc2)nn1 result_value=-0.503
compound="COc1ccc(O[C@H]2C=C[C@@H](c3ccccc3)O[C@@H]2COC(=O)CCC(C)=NOC(C)CN2CCCc3nc(C)c(C)cc32)cc1 (stereo not given in full)" result_value=-0.336
compound=CC(C)=CCCC(C)=CCON=C1C[C@@H](O)[C@@H](O)[C@@H]2[C@@H]3C(=O)N(C[C@@H]4CCCO4)C(=O)[C@@H]3CC[C@H]12 result_value=0.295
compound=COc1ccc(COC(=O)NN=C2C[C@@H](O)[C@@H](O)[C@@H]3[C@@H]4C(=O)N(c5ccc(F)cc5F)C(=O)[C@@H]4CC[C@H]23)cc1 result_value=0.307
compound="O=C1CCCC=C1C(O)CCCCBr (stereo not given)" result_value=1.43
compound=CO[C@H]1COC(=O)CC=C[C@H](C)[C@@H](OC)COC(=O)[C@@H](C)NC(=O)CC=C[C@@H]1C result_value=-0.491
compound=COC(=O)NCC=Cc1nc(CCCO)co1 result_value=-0.245
compound=CO[C@H]1COC(=O)[C@@H]2CCCN2C(=O)CC=C[C@@H](C)[C@H](OC)COC(=O)[C@@H](OCc2ccccc2)C=C[C@@H]1C result_value=-1.01
compound=CO[C@@H]1COC(=O)[C@@H]2CCCN2C(=O)[C@@H](C)COC(=O)CC=C[C@H]1C result_value=-0.749
compound=O=C1C[C@@H](O)[C@@H](O)[C@@H]2[C@@H]3C(=O)N(Cc4ccccc4)C(=O)[C@@H]3CC[C@@H]12 result_value=-0.425
compound=COC(=O)[C@@H]1CC[C@H](C)[C@@H](c2ccc(C)cc2)N1C(=O)c1ccc(C=NO[C@H](C)c2cn([C@@H]3COC[C@H]3O)nn2)cc1 result_value=0.289
compound=COc1cccc([C@H]2Oc3ccc(OC)cc3C(=NO[C@@H](C)c3cn([C@H](CO)Cc4ccccc4)nn3)[C@@H]2O)c1 result_value=-0.102
compound=Cn1c(=O)n2n(c1=O)[C@H]1[C@H](O)[C@@H]3O[C@@H]3C(=O)[C@H]1CC2 result_value=-0.343
compound=CCCCC#C[C@@H]1C=C[C@H](Oc2ccc(C(=O)OC)cc2)[C@@H](COC(=O)OCC)O1 result_value=0.472
compound=CO[C@H]1COC(=O)CC=C[C@@H](C)[C@H](NS(=O)(=O)c2ccc(C)cc2)COC(=O)CCC[C@@H]1C result_value=-0.361
compound=C#CCCCON=C1[C@H]2CCn3c(=O)n(-c4ccccc4)c(=O)n3[C@H]2[C@H](O)[C@@H]2O[C@H]12 result_value=0.352
compound="COc1cccc([C@H]2Oc3ccc(OC)cc3C(=NOC(C)CN3CCCCc4nc(C)c(C)cc43)[C@@H]2O)c1 (stereo not given in full)" result_value=0.253

* * *

Assay: PSAC antagonists in infected red cells, primary screen, cell-based, P. falciparum Indochina, OD700, 18 h (AID 1157)
Details: P. falciparum Indochina infected erythrocytes, osmotic lysis OD700, 18 h; higher = more signal, called active from +8 up or from −8 down
Calls of active or inactive are those of the source.
z-score for assorted compounds
readout.kind: z-score

compound="CCOC(=O)[C@H](Cc1ccccc1)NC(=O)CCC1CC(OC(=O)NCc2cccc3ccccc23)CC2(CCCC(COC(=O)NCc3cccc(C(F)(F)F)c3)O2)O1 (stereo not given in full)" result_value="0.493 (inactive)"
compound=CC(=O)OC[C@H]1O[C@H](C#Cc2ccccc2)C=C[C@@H]1OC(C)=O result_value="-0.219 (inactive)"
compound="CCOC(=O)[C@H](CC(C)C)NC(=O)CCC1CC(OC(=O)NCCc2ccc(F)cc2)CC2(CCCC(COC(=O)NCC3CCCCC3)O2)O1 (stereo not given in full)" result_value="-0.341 (inactive)"
compound="CCOC(=O)[C@H](CC(C)C)NC(=O)CCC1CC(OC(=O)NCc2cccc3ccccc23)CC2(CCCC(COC(=O)NCC3CCCCC3)O2)O1 (stereo not given in full)" result_value="-1.35 (inactive)"
compound=C[C@H]1COC(=O)[C@@H]2CCCN2C(=O)[C@@H](C)COC(=O)[C@H](Cc2ccccc2)NC1=O result_value="0.22 (inactive)"
compound=CC(C)=CCCC(C)=CCON=C1C[C@@H](O)[C@@H](O)[C@@H]2[C@@H]3C(=O)N(Cc4ccccc4)C(=O)[C@@H]3CC[C@@H]12 result_value="-0.0646 (inactive)"
compound=COc1cc(O)c(C(=O)C=Cc2ccc3c(c2)OCO3)c(OC)c1 result_value="0.885 (inactive)"
compound=CC(C)CCN1CCc2nc(COc3ccccc3)c3c(c2C1)CO[C@@H](C)C3 result_value="0.101 (inactive)"
compound=COC(=O)CC=C[C@@H](C)[C@@H](C=NO[C@H](C)c1cn([C@@H]2COC[C@H]2O)nn1)NS(=O)(=O)c1ccc(C)cc1 result_value="0.465 (inactive)"
compound=CCCNC(=O)OC[C@H]1O[C@H](CCON=C(C)CCN2CCCc3nc(C)c(C)cc32)C=C[C@@H]1Oc1ccc(OC)cc1 result_value="0.318 (inactive)"
compound=COc1cccc([C@H]2Oc3ccc(OC)cc3C(=NO[C@@H]3O[C@H](COC(C)=O)[C@@H](OC(C)=O)[C@H](OC(C)=O)[C@H]3OC(C)=O)[C@@H]2O)c1 result_value="0.146 (inactive)"
compound="CCC1=NOC(CCC2CC(OC(=O)NCc3cccc4c3OCO4)CC3(CCCC(COC(=O)NCCc4ccccc4OC)O3)O2)C1 (stereo not given)" result_value="0.568 (inactive)"
compound=COC(=O)CC=C[C@@H](C)[C@H](OCc1cccc(-c2ccccc2)c1)C1CCCCC1 result_value="0.367 (inactive)"
compound=CCN1C(=O)[C@H]2[C@H]3[C@H](O)[C@H](O)CC(=NOCC(C)C)[C@@H]3CC[C@H]2C1=O result_value="0.379 (inactive)"
compound="CCOC(=O)[C@H](CC(C)C)NC(=O)CCC1CC(OC(=O)NCc2cccc3ccccc23)CC2(CCCC(COC(=O)NCc3ccncc3)O2)O1 (stereo not given in full)" result_value="0.42 (inactive)"
